Sourced from ChEMBL document CHEMBL4828725

# inhibition annotations
target-desc: Tissue alpha-L-fucosidase (Bos taurus) (UniProt Q2KIM0)
Sequence (Q2KIM0 whole entry): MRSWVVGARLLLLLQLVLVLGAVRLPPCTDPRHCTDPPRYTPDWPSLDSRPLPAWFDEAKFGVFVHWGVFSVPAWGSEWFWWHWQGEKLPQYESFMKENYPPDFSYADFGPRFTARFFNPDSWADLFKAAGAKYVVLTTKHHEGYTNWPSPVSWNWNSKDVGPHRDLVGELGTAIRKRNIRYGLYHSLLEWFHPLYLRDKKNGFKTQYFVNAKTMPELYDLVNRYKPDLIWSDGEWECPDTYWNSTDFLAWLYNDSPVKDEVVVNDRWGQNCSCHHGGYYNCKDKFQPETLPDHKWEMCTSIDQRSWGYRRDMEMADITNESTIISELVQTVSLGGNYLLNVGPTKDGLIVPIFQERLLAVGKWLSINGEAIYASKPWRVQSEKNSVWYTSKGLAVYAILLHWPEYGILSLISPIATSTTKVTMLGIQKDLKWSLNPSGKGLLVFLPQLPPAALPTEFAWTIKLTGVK
test: Inhibition of bovine kidney alpha-L-fucosidase using p-nitrophenyl glycoside as substrate assessed as release of p-nitrophenol at 1000 uM measured by spectrometric assay relative to control
Type: tissue-based
Please reply with the bare figure in % and do not write the unit itself.

In the examples that follow, each entry is paired with its recorded inhibition.
molecule: CCCCCCCC[C@]1(CO)NC[C@H](O)[C@@H](O)[C@@H]1O.Cl
recorded-metric: inhibition
value-measured: 6.6
--
molecule: CCCCCCCCC[C@]1(CO)NC[C@H](O)[C@@H](O)[C@@H]1O.Cl
recorded-metric: inhibition
value-measured: 25.3
--
molecule: CCCCCCCCCCCC[C@]1(CO)NC[C@H](O)[C@@H](O)[C@@H]1O.Cl
recorded-metric: inhibition
value-measured: 16
--
molecule: CCCCC[C@@]1(CO)NC[C@H](O)[C@@H](O)[C@@H]1O.Cl
recorded-metric: inhibition
value-measured: 0
--
molecule: CC[C@]1(CO)NC[C@H](O)[C@@H](O)[C@@H]1O.Cl
recorded-metric: inhibition
value-measured: 2.1

inhibition measured on `C[C@@]1(CO)NC[C@H](O)[C@@H](O)[C@@H]1O.Cl` = 13.8

inhibition measured on OC[C@H]1NC[C@H](O)[C@@H](O)[C@@H]1O [DUVOGLUSTAT] = 1

inhibition measured on `CC[C@@]1(CO)NC[C@H](O)[C@@H](O)[C@@H]1O.Cl` = 2.1

inhibition measured on `CCC[C@@]1(CO)NC[C@H](O)[C@@H](O)[C@@H]1O.Cl` = 30.4

inhibition measured on `CCCCCCCCCCCC[C@@]1(CO)NC[C@H](O)[C@@H](O)[C@@H]1O.Cl` = 0

---

test: Inhibition of Aspergillus niger amyloglucosidase using p-nitrophenyl glycoside as substrate assessed as release of p-nitrophenol measured by spectrometric assay
recorded-metric: IC50

line-notation: CCCCCCCCC[C@@]1(CO)NC[C@H](O)[C@@H](O)[C@@H]1O.Cl
value-measured: Not Active

line-notation: CCC[C@]1(CO)NC[C@H](O)[C@@H](O)[C@@H]1O.Cl
value-measured: Not Active

line-notation: CCCCCCCCCC[C@]1(CO)NC[C@H](O)[C@@H](O)[C@@H]1O.Cl
value-measured: Not Active

---

Tested on: Penicillium decumbens
test: Inhibition of Penicillium decumbens alpha-L-rhamnosidase using p-nitrophenyl glycoside as substrate assessed as release of p-nitrophenol at 1000 uM measured by spectrometric assay relative to control
recorded-metric: inhibition (%)
Please reply with the bare figure in % and do not write the unit itself.

In the examples that follow, each entry is paired with its recorded inhibition.
line-notation: CCCCCC[C@@]1(CO)NC[C@H](O)[C@@H](O)[C@@H]1O.Cl
inhibition / %: 1.5

line-notation: CCCCCCCCC[C@]1(CO)NC[C@H](O)[C@@H](O)[C@@H]1O.Cl
inhibition / %: 9.1

line-notation: CCCCCCCCCCC[C@@]1(CO)NC[C@H](O)[C@@H](O)[C@@H]1O.Cl
inhibition / %: 4.8

inhibition measured on `CCCCCCCCCCC[C@]1(CO)NC[C@H](O)[C@@H](O)[C@@H]1O.Cl` = 4.5

inhibition measured on `CCCCCCC[C@]1(CO)NC[C@H](O)[C@@H](O)[C@@H]1O.Cl` = 0

---

target-desc: Alpha-mannosidase (Canavalia ensiformis) (UniProt C0HJB3)
Sequence (whole entry): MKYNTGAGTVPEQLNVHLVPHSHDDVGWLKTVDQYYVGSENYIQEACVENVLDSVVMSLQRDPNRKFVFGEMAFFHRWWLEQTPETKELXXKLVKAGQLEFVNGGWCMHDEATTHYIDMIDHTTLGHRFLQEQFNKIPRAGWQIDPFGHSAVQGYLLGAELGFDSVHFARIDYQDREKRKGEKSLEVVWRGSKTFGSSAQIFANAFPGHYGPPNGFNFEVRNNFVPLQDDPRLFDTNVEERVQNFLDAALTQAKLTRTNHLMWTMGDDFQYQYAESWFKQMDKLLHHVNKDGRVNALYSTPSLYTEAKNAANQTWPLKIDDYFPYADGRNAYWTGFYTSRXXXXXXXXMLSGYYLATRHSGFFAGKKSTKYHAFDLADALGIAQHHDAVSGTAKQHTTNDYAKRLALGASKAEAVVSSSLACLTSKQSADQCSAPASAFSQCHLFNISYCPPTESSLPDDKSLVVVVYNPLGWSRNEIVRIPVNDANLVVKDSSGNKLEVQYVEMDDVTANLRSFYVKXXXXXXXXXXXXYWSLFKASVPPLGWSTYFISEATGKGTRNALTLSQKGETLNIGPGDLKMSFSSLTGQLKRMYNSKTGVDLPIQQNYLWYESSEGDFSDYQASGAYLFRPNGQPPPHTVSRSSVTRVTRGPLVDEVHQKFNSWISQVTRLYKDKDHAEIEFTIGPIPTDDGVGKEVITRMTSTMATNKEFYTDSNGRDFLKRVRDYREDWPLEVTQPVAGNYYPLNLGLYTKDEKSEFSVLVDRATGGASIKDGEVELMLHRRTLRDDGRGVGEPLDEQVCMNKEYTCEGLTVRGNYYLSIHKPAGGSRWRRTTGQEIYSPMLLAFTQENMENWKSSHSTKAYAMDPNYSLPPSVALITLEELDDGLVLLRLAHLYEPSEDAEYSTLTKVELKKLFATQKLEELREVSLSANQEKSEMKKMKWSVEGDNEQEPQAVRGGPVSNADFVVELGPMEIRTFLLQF
test: Inhibition of jack bean alpha-mannosidase using p-nitrophenyl glycoside as substrate assessed as release of p-nitrophenol at 1000 uM measured by spectrometric assay relative to control
recorded-metric: inhibition (%)
Please reply with the bare figure in % and do not write the unit itself.

In the examples that follow, each entry is paired with its recorded inhibition.
line-notation: CCCCCCCCCCC[C@@]1(CO)NC[C@H](O)[C@@H](O)[C@@H]1O.Cl
inhibition, %: 3.3
--
line-notation: CCCCCCCC[C@]1(CO)NC[C@H](O)[C@@H](O)[C@@H]1O.Cl
inhibition, %: 4.6
--
line-notation: CCCCCCCC[C@@]1(CO)NC[C@H](O)[C@@H](O)[C@@H]1O.Cl
inhibition, %: 9.6
--
line-notation: CCCCCCCCCC[C@]1(CO)NC[C@H](O)[C@@H](O)[C@@H]1O.Cl
inhibition, %: 4.3
--
line-notation: CCCCCCC[C@@]1(CO)NC[C@H](O)[C@@H](O)[C@@H]1O.Cl
inhibition, %: 2.4

inhibition measured on `CCCCCCCCC[C@]1(CO)NC[C@H](O)[C@@H](O)[C@@H]1O.Cl` = 10.7

inhibition measured on `CCCCC[C@]1(CO)NC[C@H](O)[C@@H](O)[C@@H]1O.Cl` = 5.5

inhibition measured on `C[C@@]1(CO)NC[C@H](O)[C@@H](O)[C@@H]1O.Cl` = 9.6

inhibition measured on `CC[C@]1(CO)NC[C@H](O)[C@@H](O)[C@@H]1O.Cl` = 1.6

inhibition measured on `CCCCCCCCC[C@@]1(CO)NC[C@H](O)[C@@H](O)[C@@H]1O.Cl` = 0

inhibition measured on `CCCCCCCCCC[C@@]1(CO)NC[C@H](O)[C@@H](O)[C@@H]1O.Cl` = 4.7

---

test: Inhibition of rice alpha-glucosidase using p-nitrophenyl glycoside as substrate assessed as release of p-nitrophenol measured by spectrometric assay
Parameters: species or system Oryza sativa
cond: read-out: IC50
# pIC50 annotations
By convention, pIC50 is the negative base-10 log of a molar concentration.

line-notation: CC[C@]1(CO)NC[C@H](O)[C@@H](O)[C@@H]1O.Cl
pIC50: 7.01

line-notation: CCCCCC[C@@]1(CO)NC[C@H](O)[C@@H](O)[C@@H]1O.Cl
pIC50: 3.59

Now turn to the next molecule.
pIC50 measured on `CCCCCC[C@]1(CO)NC[C@H](O)[C@@H](O)[C@@H]1O.Cl` = 7.43

---

Tested on: Penicillium decumbens
test: Inhibition of Penicillium decumbens alpha-L-rhamnosidase using p-nitrophenyl glycoside as substrate assessed as release of p-nitrophenol at 1000 uM measured by spectrometric assay relative to control
recorded-metric: inhibition (%)
Please reply with the bare figure in % and do not write the unit itself.

line-notation: CCCCCC[C@]1(CO)NC[C@H](O)[C@@H](O)[C@@H]1O.Cl
inhibition [%]: 0.6
//
line-notation: CCCCCCCCCCCC[C@]1(CO)NC[C@H](O)[C@@H](O)[C@@H]1O.Cl
inhibition [%]: 0.3
//
line-notation: CCCCCCC[C@@]1(CO)NC[C@H](O)[C@@H](O)[C@@H]1O.Cl
inhibition [%]: 0
//
line-notation: CCC[C@@]1(CO)NC[C@H](O)[C@@H](O)[C@@H]1O.Cl
inhibition [%]: 2.7

Observed inhibition on Penicillium decumbens, entry `CCCC[C@]1(CO)NC[C@H](O)[C@@H](O)[C@@H]1O.Cl` , equals 16.3
